Value source: patent US20060046966A1

# System: HRV (10)
# protocolNotes: Antirhinoviral H1-HeLa cell culture assay, HRV serotype 10
# Assay type: cell-based, human rhinovirus
# details: H1-HeLa cells, XTT
# Experimental: In this cell protection assay, the ability of compounds to protect cells against HRV infection was measured by the XTT dye reduction method, which is described in Weislow et al., J. Natl. Cancer Inst. 1989, vol. 81, 577-586. H1-HeLa cells were infected with HRV-14 at a multiplicity of infection (m.o.i.) of 0.13 (virus particles/cell) or mock-infected with medium only. […] The therapeutic index (TI) was calculated by dividing the CC50 value by the EC50 value. […]
pEC50: −log10 of the molar value.
propertyName: pEC50

- smilesCode: "CCOC(=O)/C=C/[C@H](C[C@@H]1CCNC1=O)NC(=O)[C@H](Cc1ccc(F)cc1)NC(=O)[C@@H](NC(=O)c1cc(C)on1)C(C)(C)C"
  experimentalResult: 7.22
